# credit: patent US9359338B2

Reported values: pIC50 for KDR kinase (790-1356 AA) (Homo sapiens (Human)), one per item.
# pIC50 = -log10(concentration in molar units)

O=C(Nc1cc(N2CCOCC2)cc(C(F)(F)F)c1)Nc1ccc(Oc2ccnc(NC(=O)C3CC3)c2)c(F)c1    7.97
Cc1cc(Oc2ccnc(NC(=O)C3CC3)c2)ccc1NC(=O)Nc1cccc(C(F)(F)F)c1    7.96
CN1CCC(Nc2cc(C(F)(F)F)cc(NC(=O)Nc3ccc(Oc4ccnc(NC(=O)C5CC5)c4)c(F)c3)n2)CC1    7.65

// fetch KDR kinase (790-1356 AA) (Homo sapiens (Human)) pIC50 for O=C(Nc1ccc(Oc2ccnc(NC(=O)C3CC3)c2)cc1F)Nc1cc(C(F)(F)F)ccc1Cl
7.93

// fetch KDR kinase (790-1356 AA) (Homo sapiens (Human)) pIC50 for O=C(Nc1cc(NC2CCNCC2)cc(C(F)(F)F)c1)Nc1ccc(Oc2ccnc(NC(=O)C3CC3)c2)c(F)c1
7.77

// fetch KDR kinase (790-1356 AA) (Homo sapiens (Human)) pIC50 for O=C(Nc1cccc(C(F)(F)F)c1)Nc1ccc(Nc2ccnc(NC(=O)C3CC3)c2)cc1F
8.03

// fetch KDR kinase (790-1356 AA) (Homo sapiens (Human)) pIC50 for CC(F)(F)c1cc(NC(=O)Nc2ccc(Oc3cc(NC(=O)C4CC4)ncn3)c(F)c2)ccc1F
7.98

----------
Tested on: PLC-PRF-5 cells
Test: Inhibition of proliferation of PLC-PRF-5 cells (ATPlite)
Type: cell-based
Conditions: Homo sapiens, PLC-PRF-5, PLC-PRF-5 cells; read-out: PLC-PRF-5 cell proliferation IC50
MEASURE: IC50
Please make sure the unit comes right after the number.

CN1CCC(Nc2ccc(NC(=O)Nc3ccc(Oc4ccnc(NC(=O)C5CC5)c4)c(F)c3)cc2C(F)(F)F)CC1    0.031 µM
O=C(Nc1cccc(C(F)(F)F)c1)Nc1ccc(Oc2cc(NC(=O)C3CC3)ncn2)c(F)c1    0.936 µM
CN1CCC(Nc2cc(C(F)(F)F)cc(NC(=O)Nc3ccc(Oc4ccnc(NC(=O)C5CC5)c4)c(F)c3)n2)CC1    0.254 µM

// fetch PLC-PRF-5 cells IC50 for CN1CCN(Cc2cc(NC(=O)Nc3ccc(Oc4ccnc(NC(=O)C5CC5)c4)cc3)cc(C(F)(F)F)c2)CC1
0.61 µM

----------
Tested on: PLC-PRF-5 cells
Test: Inhibition of proliferation of PLC-PRF-5 cells (ATPlite)
Assay type: cell-based
Settings: Homo sapiens, PLC-PRF-5, PLC-PRF-5 cells; read-out: PLC-PRF-5 cell proliferation IC50
pIC50: −log10 of the molar value.
Entry flag: met if pIC50 reaches 6; not met if it does not.

Reference set (5 entries):
O=C(Nc1cc(NC2CC2)cc(C(F)(F)F)c1)Nc1ccc(Oc2ccnc(NC(=O)C3CC3)c2)c(F)c1    met
Cc1cc(NC(=O)Nc2cccc(C(F)(F)F)c2)ccc1Oc1ccnc(NC(=O)C2CC2)c1    met
Cc1ccc(Oc2ccnc(NC(=O)C3CC3)c2)cc1NC(=O)Nc1ccc(F)c(C(F)(F)F)c1    not met
Cc1cc(Oc2cc(NC(=O)C3CC3)ncn2)ccc1NC(=O)Nc1cc(NC2CCN(C)CC2)cc(C(F)(F)F)c1    not met
O=C(Nc1cc(F)cc(Oc2cc(NC(=O)C3CC3)ncn2)c1)Nc1cc(F)cc(C(F)(F)F)c1    not met

Identify whether the reported pIC50 of the following compound is 6 or greater: O=C(Nc1ccc(F)c(C2CC2)c1)Nc1ccc(Oc2ccnc(NC(=O)C3CC3)c2)cc1F
met

Identify whether the reported pIC50 of the following compound is 6 or greater: O=C(Nc1cc(F)cc(Oc2cc(NC(=O)C3CC3)ncn2)c1)Nc1ccc(Cl)c(C(F)(F)F)c1
not met
